target_or_test_system: T1, mTfR-1 G254A on Expi293 cells (mouse, UniProt Q62351 1-763)
T1 construct: whole, on cells
T1 sequence (Q62351 whole entry G254A): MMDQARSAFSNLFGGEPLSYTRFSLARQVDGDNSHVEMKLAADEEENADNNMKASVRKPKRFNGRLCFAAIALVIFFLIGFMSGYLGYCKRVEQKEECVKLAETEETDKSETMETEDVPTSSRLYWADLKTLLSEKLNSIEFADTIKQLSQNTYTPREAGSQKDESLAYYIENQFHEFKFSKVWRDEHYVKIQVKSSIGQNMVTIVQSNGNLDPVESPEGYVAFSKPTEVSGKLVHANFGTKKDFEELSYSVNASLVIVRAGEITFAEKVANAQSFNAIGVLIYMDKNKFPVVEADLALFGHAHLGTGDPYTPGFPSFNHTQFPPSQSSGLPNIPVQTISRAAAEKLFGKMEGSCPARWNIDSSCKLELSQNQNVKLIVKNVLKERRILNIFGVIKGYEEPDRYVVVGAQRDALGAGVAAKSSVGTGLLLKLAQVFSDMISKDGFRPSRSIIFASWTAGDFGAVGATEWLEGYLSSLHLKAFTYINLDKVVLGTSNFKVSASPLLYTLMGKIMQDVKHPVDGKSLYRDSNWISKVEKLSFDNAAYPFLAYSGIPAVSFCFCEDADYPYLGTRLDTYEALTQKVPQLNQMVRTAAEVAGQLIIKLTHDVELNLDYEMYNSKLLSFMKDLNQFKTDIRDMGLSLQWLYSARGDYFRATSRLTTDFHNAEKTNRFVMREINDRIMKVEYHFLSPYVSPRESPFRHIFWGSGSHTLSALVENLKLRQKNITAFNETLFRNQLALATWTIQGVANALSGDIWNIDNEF
protocol_details: FACS, transfected Expi293 cells
endpoint_label: % double-positive cells vs WT (%)
One number for each entry, in %.

1. Clone C variant 13 VNAR-hFc (Fc fusion, not shown: a dimerising Fc or GST, also called Clone C v13; Clone C var; 13) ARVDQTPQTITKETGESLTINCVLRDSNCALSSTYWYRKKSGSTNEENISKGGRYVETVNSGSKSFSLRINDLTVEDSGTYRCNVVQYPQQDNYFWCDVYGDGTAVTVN: 22
2. Clone C VNAR-hFc fusion (Fc fusion, not shown: a dimerising Fc or GST, bivalent VNAR-Fc; also called Clone C-hFc) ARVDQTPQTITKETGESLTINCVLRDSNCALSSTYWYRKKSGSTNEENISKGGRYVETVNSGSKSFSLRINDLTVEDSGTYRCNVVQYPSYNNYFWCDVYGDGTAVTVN: 35
3. Clone C variant 18 VNAR-hFc (Fc fusion, not shown: a dimerising Fc or GST, also called Clone C v18; Clone C var; 18) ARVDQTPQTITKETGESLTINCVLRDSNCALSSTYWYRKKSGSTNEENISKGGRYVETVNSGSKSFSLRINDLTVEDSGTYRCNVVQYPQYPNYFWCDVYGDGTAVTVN: 32

Next, consider the following binder.
# % double-positive cells vs WT lookup, item 8D3 antibody (anti-mouse TfR-1 control; 8D3-hFc formatted antibody) (antibody, V domains shown) VH: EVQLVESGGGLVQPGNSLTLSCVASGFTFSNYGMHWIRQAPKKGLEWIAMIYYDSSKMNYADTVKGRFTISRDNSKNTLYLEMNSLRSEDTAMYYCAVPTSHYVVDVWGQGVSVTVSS VL: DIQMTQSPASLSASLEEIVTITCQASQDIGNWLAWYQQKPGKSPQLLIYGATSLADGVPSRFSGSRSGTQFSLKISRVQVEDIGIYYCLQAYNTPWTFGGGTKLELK
58
